src = the METLIN SMRT retention time set (Domingo-Almenara et al. 2019)

Assay: gradient 5% acetonitrile 3 min, to 50% in 2 min, to 85% in 15 min, held 3 min, 100 µL/min
Conditions: column: Zorbax Extend-C18 2.1 x 50 mm; eluents: water / acetonitrile, 0.1% formic acid
READOUT NAME: RP-LC retention time (s)

COMPOUND | RP-LC retention time (s)
CCSC(=O)N1c2ccc(OC)cc2C=CC1C#N (stereo not given) | 911
Cc1cc(NC(=O)Cn2nc(N3CCOCC3)c3ccccc3c2=O)ccc1Br | 884
Cc1cc(-c2c(C)sc(C)c2S(=O)(=O)NC2CCC(C)CC2)n[nH]1 (stereo not given) | 1140

a. CCOc1ccccc1CNC(=O)C1CCN(c2nccnc2Sc2cccc(C)c2)CC1
b. Cc1ccc(-n2nc3c(N4CCN(C(=O)NC(C)C)CC4)nnc(C)c3c2C)cc1
Param pair: a , b . Output: the one whose RP-LC retention time is numerically greater. State the label of the item chosen.
a
(a: 1170 s, b: 675 s)
